Task for the reader: assign each of the following compounds its reported Dmax.
system: IRAK4 (Homo sapiens (Human), UniProt Q9NWZ3)
Sequence (Q9NWZ3 whole entry): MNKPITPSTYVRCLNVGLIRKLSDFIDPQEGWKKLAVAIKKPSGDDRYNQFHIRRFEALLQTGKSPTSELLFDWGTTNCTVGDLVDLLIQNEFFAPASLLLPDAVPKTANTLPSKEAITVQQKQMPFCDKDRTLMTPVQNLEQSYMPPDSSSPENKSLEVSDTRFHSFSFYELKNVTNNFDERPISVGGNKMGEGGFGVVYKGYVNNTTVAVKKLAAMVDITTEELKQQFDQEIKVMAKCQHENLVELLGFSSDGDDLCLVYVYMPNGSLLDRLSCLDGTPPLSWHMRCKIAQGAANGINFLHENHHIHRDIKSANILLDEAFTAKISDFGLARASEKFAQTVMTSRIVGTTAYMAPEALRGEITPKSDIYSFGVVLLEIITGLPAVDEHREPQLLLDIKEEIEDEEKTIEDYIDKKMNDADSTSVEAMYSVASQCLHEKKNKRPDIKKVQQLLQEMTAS
procedure_text: IRAK4 Degradation HiBiT Assay
run_parameters: Jurkat, read-out: Cellular IRAK4 HiBiT: Dmax, Table 5; multiple runs; HiBiT-tagged Jurkat cells, 4 hrs
Hi! Could you send only the number? It should be in %, unit omitted.

Qu. Give the reported value of Dmax for this record: CC(C)Nc1cc(-c2ccc3cc(C#N)cnn23)ncc1-c1nnc(N2CCN(C(=O)CCCCCNc3cccc4c3C(=O)N(C3CCC(=O)NC3=O)C4=O)CC2)s1 (centres unmarked)
Ans. 125

Qu. Give the reported value of Dmax for this record: CNc1cc(-c2ccc3cc(C#N)cnn23)ncc1-c1nnc([C@H]2CC[C@H](NC(=O)CCOCCNc3ccc4c(c3)C(=O)N(C3CCC(=O)NC3=O)C4=O)CC2)s1 (some centres unmarked)
Ans. 85

Qu. Give the reported value of Dmax for this record: CN[C@@H](C)C(=O)N[C@H](C(=O)N1CCC[C@H]1c1nc(C(=O)c2cccc(OCCOCCC(=O)N3CCN(c4nnc(-c5cnc(-c6ccc7cc(C#N)cnn67)cc5NC(C)C)s4)CC3)c2)cs1)C1CCCCC1
Ans. 67

Qu. Give the reported value of Dmax for this record: CNc1cc(-c2ccc3cc(C#N)cnn23)ncc1-c1nnc([C@H]2CC[C@H](NC(=O)CC(C)(C)C(=O)N[C@H](C(=O)N3C[C@H](O)C[C@H]3C(=O)N[C@@H](C)c3ccc(-c4scnc4C)cc3)C(C)(C)C)CC2)s1
Ans. 68

Qu. Give the reported value of Dmax for this record: CNc1cc(-c2ccc3cc(C#N)cnn23)ncc1-c1nnc([C@H]2CC[C@@H](NC(=O)CN3CCN(c4ccc5c(c4)C(=O)N(C4CCC(=O)NC4=O)C5=O)CC3)CC2)s1 (some centres unmarked)
Ans. 111
